Reported logD is given for each of the following compounds.
Experiment: Lipophilicity, log D of the compound at pH 7.4
Assay type: physicochemical
Conditions: buffer
Enter the number alone.

COMPOUND	logD
C=CC(=O)Nc1cccc(Oc2nc(Nc3ccc(N4CCN(C)CC4)cc3)nc3[nH]ccc23)c1	2.7

Qu. // returns reported logD for input C=CC(=O)N1C[C@H](COc2nc(Nc3cnn(C)c3)nc3[nH]cc(Cl)c23)[C@@H](O)C1
Ans. 2

Qu. // returns reported logD for input C=CC(=O)N1C[C@H](COc2nc(Nc3cnn(C)c3)nc3[nH]cc(Cl)c23)[C@@H](OC)C1 [PF-06459988]
Ans. 2.5

Qu. // returns reported logD for input C=CC(=O)Nc1cccc(Oc2nc(Nc3ccn(C)n3)nc3[nH]ccc23)c1
Ans. 3

These data points were gathered from ChEMBL document CHEMBL3785081.
